In this section we review reported pIC50 values for a set of molecules.
# SYSTEM_NAME: UniProt:O43613
# Sequence (O43613 whole entry): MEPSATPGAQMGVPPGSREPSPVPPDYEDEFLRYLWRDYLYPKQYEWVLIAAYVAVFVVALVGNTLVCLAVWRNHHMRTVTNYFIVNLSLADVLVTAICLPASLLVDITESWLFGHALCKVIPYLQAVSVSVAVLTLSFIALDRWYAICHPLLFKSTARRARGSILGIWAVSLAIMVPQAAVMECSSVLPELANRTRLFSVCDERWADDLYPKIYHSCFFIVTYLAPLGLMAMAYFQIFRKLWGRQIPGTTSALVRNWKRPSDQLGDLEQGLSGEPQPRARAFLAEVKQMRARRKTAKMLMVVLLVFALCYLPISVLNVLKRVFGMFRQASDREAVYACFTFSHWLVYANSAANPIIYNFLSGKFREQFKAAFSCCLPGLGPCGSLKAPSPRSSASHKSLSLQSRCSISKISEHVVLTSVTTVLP
# PROCEDURE_TEXT: Intracellular calcium measurement (FLIPR), CHO cells expressing human orexin-1 receptor, 3 nM orexin-A
# Assay type: cell-based
# PARTICULARS: CHO cells expressing human orexin-1 receptor, FLIPR, 3 nM orexin-A; geometric mean if determined several times; read-out: IC50 OX1
pIC50: −log10 of the molar value.

MOLECULE	QUALIFIER_SIGN	pIC50
Cc1ccc(-n2nccn2)c(C(=O)N2CCC[C@H]2c2nc(-c3ccccc3Cl)no2)c1	=	6.47
Cc1ccc(-n2nccn2)c(C(=O)N2CCC[C@H]2c2cnc(-c3cccc(Cl)c3C)[nH]2)c1	=	5.60
O=C(c1cc(Cl)ccc1-n1nccn1)N1CCC[C@H]1c1nc(-c2ccccc2OC(F)F)no1	=	6.86
Cc1cc(-n2nccn2)c(C(=O)N2CCC[C@H]2c2noc(-c3ccccc3OC(F)(F)F)n2)cc1Cl	=	7.89
Cc1ccc(-n2nccn2)c(C(=O)N2CCC[C@H]2c2nc(-c3cccc(C(F)(F)F)c3C)no2)c1	=	6.67
COc1ccc(-c2nnc([C@@H]3CCCN3C(=O)c3cc(C)ccc3-n3nccn3)[nH]2)cc1	<	5.18
COc1cc(C)cc(-c2nc([C@@H]3CCCN3C(=O)c3cc(OC)c(Cl)cc3-n3nccn3)no2)c1	=	7.72
COc1c(Cl)cccc1-c1nc([C@@H]2CCCN2C(=O)c2ccc(Cl)cc2-n2nccn2)no1	=	7.57
CCOc1ncccc1-c1nnc([C@@H]2CCCN2C(=O)c2cc(OC)c(C)cc2-n2nccn2)[nH]1	=	7.68
CCc1ccccc1-c1nc([C@@H]2CCCN2C(=O)c2ccc(C)cc2-n2nccn2)no1	=	7.77
Cc1ccc(C(=O)N2CCC[C@@]2(C)c2nnc(-c3ccccc3OC(F)(F)F)[nH]2)c(-n2nccn2)c1	=	8.00
Cc1c(Cl)cccc1-c1noc([C@@H]2CCCN2C(=O)c2ccccc2-c2ncco2)n1	=	6.32
Cc1ccc(-n2nccn2)c(C(=O)N2CCC[C@H]2c2nnc(-c3ccccc3OC(F)(F)F)o2)c1	=	6.74
O=C(c1cc(F)c(F)cc1-n1nccn1)N1CCC[C@H]1c1nc(-c2ccccc2OC(F)(F)F)no1	=	6.12
Cc1ccc(-n2nccn2)c(C(=O)N2CCC[C@H]2c2nc(-c3c(C)cccc3Cl)no2)c1	=	6.33

###

# SYSTEM_NAME: human orexin-2 receptor (Homo sapiens (Human))
# PROCEDURE_TEXT: Intracellular calcium measurement (FLIPR), CHO cells expressing human orexin-2 receptor, 3 nM orexin-A
# Format: cell-based
# PARTICULARS: CHO cells expressing human orexin-2 receptor, FLIPR, 3 nM orexin-A; geometric mean if determined several times; read-out: IC50 OX2
pIC50: −log10 of the molar value.

MOLECULE	QUALIFIER_SIGN	pIC50
Cc1c(Cl)cccc1-c1noc([C@@H]2CCCN2C(=O)c2cc(C#N)ccc2-n2nccn2)n1	=	6.61
O=C(c1cccs1)N1CCC[C@H]1c1nc(-c2cccc(Cl)c2)no1	=	5.14
COc1cc(C(=O)N2CCC[C@H]2c2nnc(-c3ccccc3OC(F)(F)F)[nH]2)c(-n2nccn2)cc1Cl	=	8.52
Cc1ccc(C(=O)N2CCC[C@H]2c2nc(-c3ccccc3C(F)(F)F)no2)c(-n2nccn2)c1	=	6.90
O=C(c1cccc(F)c1-n1nccn1)N1CCC[C@H]1c1nc(-c2ccccc2OC(F)(F)F)no1	=	7.10
Cc1ccc(-n2nccn2)c(C(=O)N2CCC[C@H]2c2nnc(-c3cccc(F)c3C)o2)c1	=	7.10
CCOc1ccccc1-c1noc([C@@H]2CCCN2C(=O)c2cc(Cl)ccc2-n2nccn2)n1	=	8.10
Cc1ccc(-n2nccn2)c(C(=O)N2CCC[C@H]2c2noc(-c3cccc(Cl)c3C)n2)c1	=	8.15
CCOc1ncccc1-c1nc([C@@H]2CCCN2C(=O)c2cc(OC)c(F)cc2-n2nccn2)no1	=	8.40
Cc1cc(CC(C)C)nc(-c2noc([C@@H]3CCCN3C(=O)c3cc(C)ccc3-n3nccn3)n2)c1	=	6.48
COc1c(F)cccc1-c1noc([C@@H]2CCCN2C(=O)c2cccc(Cl)c2-n2nccn2)n1	=	6.32
COc1cc(C(=O)N2CCC[C@H]2c2nnc(-c3cccc(Cl)c3OC)[nH]2)c(-n2nccn2)cc1C	=	8.70
O=C(c1ccoc1)N1CCC[C@H]1c1nc(-c2cccc(Cl)c2)no1	<	5.00
COc1ccc(-n2nccn2)c(C(=O)N2CCC[C@H]2c2nc(-c3cccc(F)c3OC)no2)c1	=	7.92
Cc1ccc(-n2nccn2)c(C(=O)N2CCC[C@H]2c2nc(-c3cc(C)ccc3C)no2)c1	=	8.10
COc1cc(C(=O)N2CCC[C@H]2c2nc(-c3ccccc3Cl)no2)c(-n2nccn2)cc1C	=	7.62

###

# SYSTEM_NAME: human orexin-2 receptor (Homo sapiens (Human), UniProt O43614)
# Sequence (O43614 whole entry): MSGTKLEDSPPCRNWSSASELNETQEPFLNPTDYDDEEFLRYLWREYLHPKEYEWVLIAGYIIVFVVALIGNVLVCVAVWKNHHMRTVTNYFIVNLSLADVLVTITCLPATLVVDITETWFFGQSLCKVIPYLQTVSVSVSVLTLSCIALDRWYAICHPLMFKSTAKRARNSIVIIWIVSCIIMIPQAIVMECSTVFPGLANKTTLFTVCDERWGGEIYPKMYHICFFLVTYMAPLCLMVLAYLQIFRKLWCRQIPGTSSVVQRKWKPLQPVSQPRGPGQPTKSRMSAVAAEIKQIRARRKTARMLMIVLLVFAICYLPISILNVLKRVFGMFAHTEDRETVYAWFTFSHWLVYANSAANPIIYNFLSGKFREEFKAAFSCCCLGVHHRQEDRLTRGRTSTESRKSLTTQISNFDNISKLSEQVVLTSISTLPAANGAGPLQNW
# PROCEDURE_TEXT: Intracellular calcium measurement (FLIPR), CHO cells expressing human orexin-2 receptor, 3 nM orexin-A
# Format: cell-based
# PARTICULARS: CHO cells expressing human orexin-2 receptor, FLIPR, 3 nM orexin-A; geometric mean if determined several times; read-out: IC50 OX2
pIC50: −log10 of the molar value.
pIC50 of 7 or higher: condition met. Under 7: condition not met.

MOLECULE	ASSIGNED_CATEGORY
Cc1ccc(-n2cccn2)c(C(=O)N2CCC[C@H]2c2nc(-c3cccc(Cl)c3C)no2)c1	condition met
Cc1ccc(C(=O)N2CCC[C@H]2c2noc(-c3ccccc3OC(F)(F)F)n2)c(-n2nccn2)c1	condition met
CCOc1ncccc1-c1noc([C@@H]2CCCN2C(=O)c2cc(C)c(C)cc2-n2nccn2)n1	condition met
COc1ccc(C)c(-c2nc([C@@H]3CCCN3C(=O)c3cc(OC)c(C)cc3-n3nccn3)no2)c1	condition met
CCOc1ncccc1-c1nnc([C@@H]2CCCN2C(=O)c2cc(C)c(C)cc2-n2nccn2)[nH]1	condition met
CCOc1c(F)cccc1-c1noc([C@@H]2CCCN2C(=O)c2ccccc2-n2nccn2)n1	condition met
Cc1ccc(-n2nccn2)c(C(=O)N2CCC[C@H]2c2nc(-c3cn(C)c4ccccc34)no2)c1	condition met
COc1ccc(-c2nnc([C@@H]3CCCN3C(=O)c3cc(C)ccc3-n3nccn3)[nH]2)cc1	condition not met
COc1ccc(-n2nccn2)c(C(=O)N2CCC[C@H]2c2nc(-c3cccc(F)c3C)no2)c1	condition met
Cc1ccc(-n2nccn2)c(C(=O)N2CCC[C@H]2c2nc(-c3cccnc3OC3CCCC3)no2)c1	condition not met
COc1cc(C(=O)N2CCC[C@H]2c2nc(-c3cccc(F)c3OC)no2)c(-n2nccn2)cc1Cl	condition met

###

# SYSTEM_NAME: human orexin-2 receptor (Homo sapiens (Human), UniProt O43614)
# PROCEDURE_TEXT: Intracellular calcium measurement (FLIPR), CHO cells expressing human orexin-2 receptor, 3 nM orexin-A
# Format: cell-based
# PARTICULARS: CHO cells expressing human orexin-2 receptor, FLIPR, 3 nM orexin-A; geometric mean if determined several times; read-out: IC50 OX2
Parameter: IC50. Scope: all listed entries.

MOLECULE	SYSTEM_NAME	IC50 / nM
CCCOc1ccccc1-c1noc([C@@H]2CCCN2C(=O)c2cc(C)ccc2-n2nccn2)n1	human orexin-2 receptor (Homo sapiens (Human), UniProt O43614)	125
Cc1ccc(C(=O)N2CCC[C@@]2(C)c2nnc(-c3cccc(Cl)c3C)[nH]2)c(-n2nccn2)c1	human orexin-2 receptor (Homo sapiens (Human), UniProt O43614)	24
COc1c(Cl)cccc1-c1nc([C@@H]2CCCN2C(=O)c2cc(C)c(C)cc2-n2nccn2)no1	human orexin-2 receptor (Homo sapiens (Human), UniProt O43614)	1

###

# SYSTEM_NAME: human orexin-2 receptor (Homo sapiens (Human), UniProt O43614)
# PROCEDURE_TEXT: Intracellular calcium measurement (FLIPR), CHO cells expressing human orexin-2 receptor, 3 nM orexin-A
# Assay type: cell-based
# PARTICULARS: CHO cells expressing human orexin-2 receptor, FLIPR, 3 nM orexin-A; geometric mean if determined several times; read-out: IC50 OX2
Criterion met if IC50 is below 30 nM. Criterion not met if not; exact matches included in Criterion not met.

MOLECULE	SYSTEM_NAME	ASSIGNED_CATEGORY
O=C(c1[nH]cnc1-c1ccccc1)N1CCC[C@H]1c1nc(-c2ccccc2OC(F)(F)F)no1	human orexin-2 receptor (Homo sapiens (Human), UniProt O43614)	Criterion not met
CCOc1c(F)cccc1-c1noc([C@@H]2CCCN2C(=O)c2cc(C)ccc2-n2nccn2)n1	human orexin-2 receptor (Homo sapiens (Human), UniProt O43614)	Criterion met
COc1ccc(-c2ccccc2)c(C(=O)N2CCC[C@H]2c2nc(-c3ccccc3OC(F)(F)F)no2)c1	human orexin-2 receptor (Homo sapiens (Human), UniProt O43614)	Criterion not met
O=C(c1cc(F)ccc1-n1nccn1)N1CCC[C@H]1c1nc(-c2ccccc2OC(F)(F)F)no1	human orexin-2 receptor (Homo sapiens (Human), UniProt O43614)	Criterion not met
Cc1cc(C(=O)N2CCC[C@H]2c2noc(-c3cccc(C)c3C)n2)c(-n2nccn2)cc1C	human orexin-2 receptor (Homo sapiens (Human), UniProt O43614)	Criterion met
Cc1ccc(-n2nccn2)c(C(=O)N2CCC[C@H]2c2nc(-c3ccccc3C(F)(F)F)no2)c1	human orexin-2 receptor (Homo sapiens (Human), UniProt O43614)	Criterion not met
CCOc1c(F)cccc1-c1noc([C@@H]2CCCN2C(=O)c2cc(OC)c(F)cc2-n2nccn2)n1	human orexin-2 receptor (Homo sapiens (Human), UniProt O43614)	Criterion not met
Cc1ccc(C(=O)N2CCC[C@H]2c2cc(-c3ccccc3OC(F)(F)F)on2)c(-n2nccn2)c1	human orexin-2 receptor (Homo sapiens (Human), UniProt O43614)	Criterion not met
COc1cc(C(=O)N2CCC[C@H]2c2nc(-c3cccc(Cl)c3C)no2)c(-n2nccn2)cc1C	human orexin-2 receptor (Homo sapiens (Human), UniProt O43614)	Criterion met
Cc1ccc(C(=O)N2CCC[C@H]2c2nc(-c3ccccc3OC(F)F)no2)c(-n2nccn2)c1	human orexin-2 receptor (Homo sapiens (Human), UniProt O43614)	Criterion not met
Cc1ccc(-n2nccn2)c(C(=O)N2CCC[C@H]2c2nc(-c3ccccc3OC(F)(F)F)no2)c1	human orexin-2 receptor (Homo sapiens (Human), UniProt O43614)	Criterion met
Cc1c(Cl)cccc1-c1nnc([C@]2(C)CCCN2C(=O)c2ccc(Cl)cc2-n2nccn2)[nH]1	human orexin-2 receptor (Homo sapiens (Human), UniProt O43614)	Criterion met
Cc1ccc(-n2cccn2)c(C(=O)N2CCC[C@H]2c2nc(-c3ccccc3OC(F)(F)F)no2)c1	human orexin-2 receptor (Homo sapiens (Human), UniProt O43614)	Criterion met
COc1cc(C(=O)N2CCC[C@H]2c2noc(-c3cc(C)ccc3OC)n2)c(-n2nccn2)cc1Cl	human orexin-2 receptor (Homo sapiens (Human), UniProt O43614)	Criterion met
Cc1ccc(-n2nccn2)c(C(=O)N2CCC[C@H]2c2nnc(-c3cccc(Cl)c3C)o2)c1	human orexin-2 receptor (Homo sapiens (Human), UniProt O43614)	Criterion met
Cc1ccc(-n2nccn2)c(C(=O)N2CCC[C@H]2c2nnc(-c3ccccc3)[nH]2)c1	human orexin-2 receptor (Homo sapiens (Human), UniProt O43614)	Criterion not met
Cc1nc(C(=O)N2CCC[C@H]2c2nnc(-c3ccccc3OC(F)(F)F)o2)c(-c2ccccc2F)s1	human orexin-2 receptor (Homo sapiens (Human), UniProt O43614)	Criterion not met
COc1cc(C(=O)N2CCC[C@H]2c2noc(-c3cccc(Cl)c3OC)n2)c(-n2nccn2)cc1Cl	human orexin-2 receptor (Homo sapiens (Human), UniProt O43614)	Criterion met
O=C(c1cccc(Cl)c1-n1nccn1)N1CCC[C@H]1c1nc(-c2ccccc2OC(F)(F)F)no1	human orexin-2 receptor (Homo sapiens (Human), UniProt O43614)	Criterion not met
Cc1ccc(C(=O)N2CCC[C@H]2c2nnc(-c3ccccc3OC(F)(F)F)[nH]2)c(-n2nccn2)c1	human orexin-2 receptor (Homo sapiens (Human), UniProt O43614)	Criterion met
Cc1ccc(C(=O)N2CCC[C@H]2c2cc(-c3ccccc3OC(F)(F)F)n[nH]2)c(-n2nccn2)c1	human orexin-2 receptor (Homo sapiens (Human), UniProt O43614)	Criterion not met
